- target_under_test: Cytochrome P450 2A5 (Mus musculus, UniProt P20852)
- experiment_summary: Inhibitory concentration against mouse cytochrome P450 2A5
Would you mind telling me the reported log10 IC50 of each entry?
log10 IC50, µM

Known results for compounds:
| compound | log10 IC50 |
| --- | --- |
| CC(N)Cc1ccccc1 (stereo not given) | 0.45 |
| Cc1ccc2cccc(C)c2c1 | 1.15 |
| COc1cc2c(cc1OC)CC(=O)CC2 | 2.32 |
| Cc1cccc2ccccc12 | 1.38 |

Kindly give each listed record's log10 IC50.
1. Brc1ccc2ccccc2c1
2. Cc1cccc2c(C)cccc12
3. Clc1cccc2ccccc12
4. COc1ccc(C=O)cc1
5. CN1CCC[C@@H]1c1cccnc1
6. Clc1cc2ccccc2cc1Cl
7. CCc1ccc2ccccc2c1

Solution:
0.40
1.53
1.15
0.77
2.20
1.78
0.68

----------
- target_under_test: Cytochrome P450 2A6 (Homo sapiens, UniProt P11509)
- Sequence (P11509 whole entry): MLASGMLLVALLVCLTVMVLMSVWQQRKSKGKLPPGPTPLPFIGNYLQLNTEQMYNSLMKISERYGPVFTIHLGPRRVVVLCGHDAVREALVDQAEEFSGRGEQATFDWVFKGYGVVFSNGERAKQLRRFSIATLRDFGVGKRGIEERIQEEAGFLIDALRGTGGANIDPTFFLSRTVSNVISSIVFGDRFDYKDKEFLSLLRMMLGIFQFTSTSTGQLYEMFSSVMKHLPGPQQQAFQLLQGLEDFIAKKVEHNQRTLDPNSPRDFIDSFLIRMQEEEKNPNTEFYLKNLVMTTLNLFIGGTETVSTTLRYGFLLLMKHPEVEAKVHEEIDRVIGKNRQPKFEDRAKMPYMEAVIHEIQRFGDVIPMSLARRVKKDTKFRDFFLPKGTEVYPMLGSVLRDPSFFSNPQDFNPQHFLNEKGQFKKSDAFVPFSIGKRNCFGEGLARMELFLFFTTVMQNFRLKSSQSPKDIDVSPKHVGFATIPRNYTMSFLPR
Would you mind telling me the reported IC50 of each entry?
Numbers only, in µM.

| smiles_str | u | IC50 |
| --- | --- | --- |
| c1ccc2c(c1)ccc1ccccc12 | µM | 97 |
| Brc1ccc2ccccc2c1 | µM | 0.55 |
| Cc1ccc2cccc(C)c2c1 | µM | 31 |

Kindly give each listed record's IC50.
1. CCc1ccc2ccccc2c1
2. Clc1ccccc1-c1ccccc1
3. Oc1cccc2ccccc12
4. Cc1ccc2ccccc2n1
5. Cc1cc(C)c2ccccc2n1

Solution:
1. 12
2. 36
3. 130
4. 190
5. 830

----------
- target_under_test: Cytochrome P450 2A6 (Homo sapiens, UniProt P11509)
- Sequence (P11509 whole entry): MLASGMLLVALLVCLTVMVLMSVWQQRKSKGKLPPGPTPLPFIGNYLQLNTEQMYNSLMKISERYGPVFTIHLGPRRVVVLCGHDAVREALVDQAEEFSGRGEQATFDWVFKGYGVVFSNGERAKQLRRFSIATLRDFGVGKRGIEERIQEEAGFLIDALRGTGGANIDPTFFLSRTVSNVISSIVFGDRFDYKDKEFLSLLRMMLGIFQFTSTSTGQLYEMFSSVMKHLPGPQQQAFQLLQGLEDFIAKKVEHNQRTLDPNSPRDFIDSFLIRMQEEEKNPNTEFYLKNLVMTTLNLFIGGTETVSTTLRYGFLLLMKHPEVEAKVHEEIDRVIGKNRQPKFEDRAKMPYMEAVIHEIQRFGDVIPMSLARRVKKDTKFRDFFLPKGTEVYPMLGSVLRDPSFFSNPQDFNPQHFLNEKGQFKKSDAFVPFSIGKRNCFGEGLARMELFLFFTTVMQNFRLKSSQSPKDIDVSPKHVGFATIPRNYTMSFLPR
pIC50: −log10 of the molar value.
Response key: 1.0 means pIC50 >= 5; 0.0 means pIC50 < 5.

These recorded examples may help you get a feel for the data.
| compound | class_label |
| --- | --- |
| Cc1ccc2ccc(C)cc2c1 | 1.0 |
| Clc1ccc(-c2ccccc2)cc1 | 0.0 |

Exercise: Is reported pIC50 greater than or equal to 5 here: `Cc1ccc2ccccc2c1`
Solution: 1.0

Exercise: Is reported pIC50 greater than or equal to 5 here: `CN1CCC[C@@H]1c1cccnc1`
Solution: 0.0

----------
Would you mind telling me the reported selectivity ratio of each entry?
- Tested on: CYP2A6 / CYP2A5
- experiment_summary: Ratio of IC50 for human CYP2A6 to that of mouse CYP2A5 was determined
One number for each entry.

Known results for compounds:
| compound | target_under_test | selectivity ratio |
| --- | --- | --- |
| O=C1CCCc2ccccc21 | CYP2A6 / CYP2A5 | 3.6 |
| CCc1ccc2ccccc2c1 | CYP2A6 / CYP2A5 | 2.4 |
| Brc1ccc(Br)cc1 | CYP2A6 / CYP2A5 | 48.5 |
| Brc1ccc2ccccc2c1 | CYP2A6 / CYP2A5 | 0.22 |
| COc1cc2c(cc1OC)CC(=O)CC2 | CYP2A6 / CYP2A5 | 9.2 |
| Clc1ccc(Cl)cc1 [1,4-DICHLOROBENZENE] | CYP2A6 / CYP2A5 | 30.4 |
| Cc1cc(C)c2ccccc2n1 | CYP2A6 / CYP2A5 | 7.7 |
| Clc1cccc2c(Cl)cccc12 | CYP2A6 / CYP2A5 | 1.04 |

Kindly give each listed record's selectivity ratio.
1. Cc1cnc2ccccc2c1
2. c1ccc2ccccc2c1 [NAPHTHALENE]
3. Cc1ccc2ccc(C)nc2c1
4. Cc1cccc2ccccc12
5. Cc1nccc2ccccc12
6. Clc1cccc2ccccc12

Solution:
[1.9, 0.34, 2.2, 1.4, 0.36, 1.3]

Kindly give each listed record's selectivity ratio.
1. CN1C(=O)CCC1c1cccnc1 (single isomer, unassigned) [COTININE]
2. Clc1ccccc1-c1ccccc1
3. Oc1ccc2ccccc2c1 [BETANAPHTHOL]
4. Cc1ccc2cccc(C)c2c1
5. Fc1ccc2ccccc2c1
6. CC(=O)c1ccc2ccc(C)cc2c1
7. Oc1cccc2ccccc12 [1-NAPHTHOL]
8. Cc1ccc2ccccc2c1

Solution:
42.8
2.8
1.8
1.2
0.09
1.6
0.96
0.34

Kindly give each listed record's selectivity ratio.
1. Cc1ccc2ccccc2n1 [QUINALDINE]
2. Cc1cccc2c(C)cccc12
3. Cc1ccc2cc(C)ccc2c1
4. Clc1ccc(-c2ccccc2)cc1
5. Cc1cc2ccccc2cn1
6. Clc1ccc2ccccc2c1
7. O=C1CCc2ccccc2C1
8. CN1CCC[C@@H]1c1cccnc1 [R-NICOTINE]

Solution:
1: 2.4; 2: 0.91; 3: 5.9; 4: 8.2; 5: 5.1; 6: 0.45; 7: 2.2; 8: 3.8

Kindly give each listed record's selectivity ratio.
1. Cc1ccc2c(C)cccc2c1
2. c1ccc2c(c1)ccc1ccccc12 [PHENANTHRENE]

Solution:
1: 4; 2: 4

----------
- target_under_test: CYP2A6 (Homo sapiens)
- experiment_summary: Michaelis-Menten constant of compound against human cytochrome P450 2A6 enzyme
- Assay type: ADME
measurement_kind: Km (µM)
One number for each entry, in µM.

Exercise: State the recorded Km for this entry: `O=c1ccc2ccccc2o1`
Solution: 0.74

----------
- target_under_test: Cytochrome P450 2A5 (Mus musculus, UniProt P20852)
- Sequence (P20852 whole entry): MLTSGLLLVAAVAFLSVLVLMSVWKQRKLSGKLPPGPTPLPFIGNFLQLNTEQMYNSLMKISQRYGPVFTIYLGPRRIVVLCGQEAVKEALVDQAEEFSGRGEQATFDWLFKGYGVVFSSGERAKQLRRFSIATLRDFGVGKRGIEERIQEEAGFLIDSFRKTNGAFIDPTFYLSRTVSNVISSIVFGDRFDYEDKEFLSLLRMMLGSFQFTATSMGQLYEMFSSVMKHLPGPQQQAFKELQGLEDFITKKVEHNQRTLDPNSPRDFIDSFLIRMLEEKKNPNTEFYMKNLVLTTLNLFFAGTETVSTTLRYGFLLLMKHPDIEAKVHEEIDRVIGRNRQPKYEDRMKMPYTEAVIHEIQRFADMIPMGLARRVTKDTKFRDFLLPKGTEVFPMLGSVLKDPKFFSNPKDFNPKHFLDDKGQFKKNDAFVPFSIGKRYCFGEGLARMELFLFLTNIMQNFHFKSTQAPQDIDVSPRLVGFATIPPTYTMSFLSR
The threshold is 10 µM. Values of IC50 beneath it are tagged condition met; values meeting or exceeding it are tagged condition not met.

These recorded examples may help you get a feel for the data.
| smiles_str | class_label |
| --- | --- |
| Cc1ccc2c(C)cccc2c1 | condition not met |
| Clc1ccc2ccc(Cl)cc2c1 | condition met |
| Clc1cccc2c(Cl)cccc12 | condition met |
| Fc1ccc2ccccc2c1 | condition met |
| Cc1ccc2ccc(C)cc2c1 | condition met |
| Cc1ccc2ccccc2c1 | condition met |
| Clc1ccc2ccccc2c1 | condition not met |
| Clc1ccccc1-c1ccccc1 | condition not met |

Exercise: Could you please tell me whether IC50 recorded for `Clc1ccc2ccccc2c1Cl` is less than 10 µM?
Solution: condition met
